# tgt: T1, KSRP KH1-4, KH4 mutant (human, UniProt Q92945 68-525, R442D;G443D)
# T1 sequence: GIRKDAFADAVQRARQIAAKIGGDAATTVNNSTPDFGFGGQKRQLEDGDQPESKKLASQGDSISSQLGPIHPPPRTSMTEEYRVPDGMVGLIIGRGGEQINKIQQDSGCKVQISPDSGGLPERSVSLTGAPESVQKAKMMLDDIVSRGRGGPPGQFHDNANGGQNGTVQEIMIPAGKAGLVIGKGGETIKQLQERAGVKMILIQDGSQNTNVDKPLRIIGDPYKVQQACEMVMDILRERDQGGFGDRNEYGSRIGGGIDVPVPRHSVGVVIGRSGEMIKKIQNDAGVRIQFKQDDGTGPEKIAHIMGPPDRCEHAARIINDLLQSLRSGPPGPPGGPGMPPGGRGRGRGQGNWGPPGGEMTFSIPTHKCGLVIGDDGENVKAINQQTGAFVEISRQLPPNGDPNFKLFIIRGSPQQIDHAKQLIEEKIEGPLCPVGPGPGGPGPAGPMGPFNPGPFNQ
# assay_name: BLI
readout_kind: Kd (nM)
Respond numerically; units are nM and should not be typed.

Fill in the blank: the reported Kd of GUGUGUUAUUAUUUAUUAUUUAUUUAUUAUUUAUUUAUUCAG (ssRNA) [TNFalpha BLI ARE 42-mer] is ____.
50
